# protocol.summary: yeast display, Sf9 membrane polyspecificity reagent, FACS + sequencing; frameworks hold sequencing errors

>  <chain>
QVQLVESGGGLVQAGGSLRLSCAASGSTFDTNDMGWDRQAPGKERELVAAISSGGDYADSVKGRFTISRDNAKNTVYLQLNSLKPEDTAVYYCAKADTKWGQGTQVTVSS

>  <polyreactivity (PSR sort gate)>
low polyreactivity

$$$$
>  <chain>
QVQLVDSGGGLVQAGGSLRLSCPASGSTFQRYAMGWYRQAPGKERELVAAISSSGVRTYYADSVKGRFTISRDNAKNTVYLQMNSLKPEDTAVYYCATGYIFRYRQSAYDYWGQGTQVTVSS

>  <polyreactivity (PSR sort gate)>
high polyreactivity

$$$$
>  <chain>
QVQLVESGGGIVQAGGSLRLSCAASGGTFIRYAMGWYRQAPGKEREFVAAISASGGSTYYADSVKGRFTISRDNAKNTVYLQMNSLKPEDTAVYYCAARRTNLPVKFYYWGQGTQVTVSS

>  <polyreactivity (PSR sort gate)>
high polyreactivity

$$$$
>  <chain>
QVQLVESGGGIVQAGVSLRLSCAASGSTFVRYAMGWYRPAPGKERELVAAISGGGSTSYADSVKGRFTISRDNAKNTVYLQMNSLKPEDTAVYYCAAEKYRWENDAYQYYTFDYWGQGTQVTVSS

>  <polyreactivity (PSR sort gate)>
low polyreactivity

$$$$
>  <chain>
QVQIVESGPGLVQAGASLSLSCAASGSIFRPYAMGWYIQAPGKDRELVAAITWSGGRTYYADSVKGRFTISRDNAKNTVYLKMNSLKREDTAVYYCAADDSEGFDYWGQGNQVTVSS

>  <polyreactivity (PSR sort gate)>
high polyreactivity

$$$$
>  <chain>
QVQLVESGGGLVQAGGSLRLSCAASGRIFSFNGMGWYRQAPGKERELVAAITTSGGRTYYADSVKGRFTISRDNAKNTVYLQINSLKPEDTAVYYCAAELAWEYYWGQGTQVTVSS

>  <polyreactivity (PSR sort gate)>
low polyreactivity

$$$$
>  <chain>
QVQLVESGGGLVQAGGSLRLSCAASGSTFGFYAMGWYRQAPGKERELVAAIDSGGSTYYADSVKGRFTISRDNAKNTVYLQMNSLKPEDTAVYYCAVRHRYTRAYWGRDYWGQGTQVTVSS

>  <polyreactivity (PSR sort gate)>
low polyreactivity

$$$$
>  <chain>
QVQLVESGGRKVQAGGSLRLSCAASGYTSSRYAMGRYRPAPGKERELVAAISGTGGSTNYADSVKGRFTISRDNAKNNVYLQKNSLKPEDTAVYYCAKRSRTYGTSPYYYWGQGTQVSVSS

>  <polyreactivity (PSR sort gate)>
high polyreactivity

$$$$
>  <chain>
QVQLVESGGGLVQAGGSLRLSCAASGFTFSTYTMGWYRPAPGKVRELVAAITWTGGRKYYADSVKGRFTISRDNAKNTVFLQMNSLKPEDTAVYYCNRAGYTGAEVYGYDYWGQGTQVTVSS

>  <polyreactivity (PSR sort gate)>
high polyreactivity

$$$$
>  <chain>
QVQLVESGGGLVQAGGSLRLSCAASGITFWNNAMGWYRQAPGKERELVATISSNGGRTYYADSVKGRFTISRDNAKNSVYLQMNSLKPEDTAVYYCNAARRAYGYNYWGQGTQVTVSS

>  <polyreactivity (PSR sort gate)>
low polyreactivity

$$$$
>  <chain>
QVKLVESAGGLVQAGGSLRLSCAASGRTFVGNAMGWYRQEPGKEREVVAAITSRTGSTYYADSVKGRFTISRDNAKNTGYLQMNSLKPEDTAVYYGATPYYQIVYSRKAYNFWGQGTQVTVSS

>  <polyreactivity (PSR sort gate)>
high polyreactivity

$$$$
